target_under_test: Delta-type opioid receptor (Rattus norvegicus)
Sequence (P33533 whole entry): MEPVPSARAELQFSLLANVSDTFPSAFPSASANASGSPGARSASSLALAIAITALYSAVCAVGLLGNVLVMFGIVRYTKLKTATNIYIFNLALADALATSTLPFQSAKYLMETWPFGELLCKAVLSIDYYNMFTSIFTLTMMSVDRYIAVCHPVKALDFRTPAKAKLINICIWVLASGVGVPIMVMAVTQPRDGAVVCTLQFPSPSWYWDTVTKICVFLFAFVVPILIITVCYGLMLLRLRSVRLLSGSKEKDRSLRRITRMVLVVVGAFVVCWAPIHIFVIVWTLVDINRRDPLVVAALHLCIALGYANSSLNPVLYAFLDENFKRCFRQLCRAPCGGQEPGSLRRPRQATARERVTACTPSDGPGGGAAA
test_description: Binding affinity for delta opioid receptors was determined by displacement of [3H]DSLET from rat brain membrane binding site
value_type: Ki (nM)

>>> measured_number("N[C@@H](Cc1ccc(O)cc1)C(=O)N[C@@H]1CCCNC(=O)[C@H]2CCCN2C(=O)[C@H](Cc2ccc3ccccc3c2)NC1=O")
28.3
>>> measured_number("N[C@@H](Cc1ccc(O)cc1)C(=O)NC1CCCNC(=O)CNC(=O)[C@@H]2CCCN2C(=O)[C@H](Cc2ccccc2)NC1=O (single isomer, unassigned)")
1280
>>> measured_number("N[C@@H](Cc1ccc(O)cc1)C(=O)N[C@@H]1CCCNC(=O)CNC(=O)[C@H]2CCCN2C(=O)[C@H](Cc2cccc3ccccc23)NC1=O")
23.6
>>> measured_number("N[C@@H](Cc1ccc(O)cc1)C(=O)NC1CCCNC(=O)CNC(=O)[C@@H]2CCCN2C(=O)[C@H](Cc2ccc3ccccc3c2)NC1=O (single isomer, unassigned)")
2140
>>> measured_number("N[C@@H](Cc1ccc(O)cc1)C(=O)N[C@@H]1CCCNC(=O)CNC(=O)[C@H]2CCCN2C(=O)[C@H](Cc2c[nH]c3ccccc23)NC1=O")
10.3
>>> measured_number("N[C@@H](Cc1ccc(O)cc1)C(=O)N[C@@H]1CCNC(=O)CNC(=O)[C@H]2CCCN2C(=O)[C@H](Cc2ccc3ccccc3c2)NC1=O")
70.8
>>> measured_number("N[C@@H](Cc1ccc(O)cc1)C(=O)N[C@@H]1CCCNC(=O)CNC(=O)[C@H]2CCCN2C(=O)[C@H](Cc2ccccc2)NC1=O")
13.2

The origin of these recorded values is ChEMBL document CHEMBL1127633.
